Tested on: OE21 (Esophageal Squamous Cell Carcinoma);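 also: after 72 h of two-drug dosing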
assay.notes: Bliss excess, mean over the matrix (fraction); higher = more synergy
property.measured: Bliss excess
Numbers only.

[
  {
    "compound": "C=CCn1c(=O)c2cnc(Nc3ccc(N4CCN(C)CC4)cc3)nc2n1-c1cccc(C(C)(C)O)n1 [AZD1775] + C[C@@H]1COCCN1C2=NC(=NC(=C2)C3(CC3)[S@](=N)(=O)C)C4=C5C=CNC5=NC=C4 [AZD6738] (first compound max 1 µM, partner max 10 µM)",
    "target.under.test": "OE21 (Esophageal Squamous Cell Carcinoma)",
    "Bliss excess": -0.0207
  },
  {
    "compound": "Cc1c2c(nn1C)CSCc1cc(n(C)n1)CSc1cc(c3ccccc3c1)OCCCc1c(C(=O)O)n(C)c3c-2c(Cl)ccc13 [AZD5991] + Cn1cnc2c(F)c(Nc3ccc(Br)cc3Cl)c(C(=O)NOCCO)cc21 [Selumetinib] (first compound max 1 µM, 7x7, partner max 3 µM)",
    "target.under.test": "OE21 (Esophageal Squamous Cell Carcinoma)",
    "Bliss excess": 0.0286
  },
  {
    "compound": "CC(=O)c1c(C)c2cnc(Nc3ccc(N4CCNCC4)cn3)nc2n(C2CCCC2)c1=O [Palbociclib] + Cn1cnc2c(F)c(Nc3ccc(Br)cc3Cl)c(C(=O)NOCCO)cc21 [Selumetinib] (first compound max 10 µM, 7x7, partner max 10 µM)",
    "target.under.test": "OE21 (Esophageal Squamous Cell Carcinoma)",
    "Bliss excess": 0.0877
  },
  {
    "compound": "COc1nnc2ccc(N3CCC(c4ccc(OCCN5CCN(C)C(=O)[C@H]5C)cc4)CC3)nn12 [AZD5153] + C=CCn1c(=O)c2cnc(Nc3ccc(N4CCN(C)CC4)cc3)nc2n1-c1cccc(C(C)(C)O)n1 [AZD1775] (first compound max 1 µM, partner max 1 µM)",
    "target.under.test": "OE21 (Esophageal Squamous Cell Carcinoma)",
    "Bliss excess": -0.0497
  }
]

Fill in: OE21 (Esophageal Squamous Cell Carcinoma) Bliss excess for Cc1c2c(nn1C)CSCc1cc(n(C)n1)CSc1cc(c3ccccc3c1)OCCCc1c(C(=O)O)n(C)c3c-2c(Cl)ccc13 [AZD5991] + C[C@@H]1COCCN1C2=NC(=NC(=C2)C3(CC3)[S@](=N)(=O)C)C4=C5C=CNC5=NC=C4 [AZD6738] (first compound max 1 µM, 7x7, partner max 10 µM) = 0.0157
